Measured Ki by item
Target: Gastrin/cholecystokinin type B receptor (Cavia porcellus)
Test: Displacement of [3H]pCCK-8 from cholecystokinin type B receptor in guinea pig brain membrane
Non-standard residues stand in square brackets, D forms with d. Residues, ends and D or L forms follow the SMILES beside them. *: point of attachment. NMeW = CN[C@@H](Cc1c[nH]c2ccccc12)C(=O)O; 1Nal = N[C@@H](Cc1cccc2ccccc12)C(=O)O; Chg = N[C@H](C(=O)O)C1CCCCC1; Phg = N[C@H](C(=O)O)c1ccccc1; OtBu = CC(C)(C)O*
Readout kind: Ki (µM)

# Compound, Reading
data = [
    ("CCCC[C@H](NC(=O)[C@H](CC(=O)O)NC(=O)[C@H](Cc1cccc2ccccc12)N(C)C)C(=O)N(C)[C@@H](Cc1c[nH]c2ccccc12)C(=O)OC(C)(C)C", 0.081),
    ("CN(C)[C@@H](Cc1cccc2ccccc12)C(=O)N[C@@H](CC(=O)O)C(=O)N[C@H](C(=O)N[C@@H](Cc1c[nH]c2ccccc12)C(=O)OC(C)(C)C)C1CCCCC1", 0.074),
    ("CCCC[C@H](NC(=O)[C@H](CC(=O)O)NC(=O)[C@@H](N)Cc1ccccc1)C(=O)N[C@H](Cc1c[nH]c2ccccc12)C(=O)OC(C)(C)C", 0.16),
    ("CC(C)(C)OC(=O)[C@H](Cc1c[nH]c2ccccc12)NC(=O)[C@H](Cc1ccccc1)NC(=O)[C@H](CC(=O)O)NC(=O)[C@@H](N)Cc1cccc2ccccc12 (H-[1Nal]DFW-OtBu)", 0.071),
    ("CN(C(=O)[C@@H](NC(=O)[C@H](CC(=O)O)NC(=O)[C@@H](N)Cc1cccc2ccccc12)c1ccccc1)[C@@H](Cc1c[nH]c2ccccc12)C(=O)OC(C)(C)C (H-[1Nal]D[Phg][NMeW]-OtBu)", 0.17),
    ("CN(C(=O)[C@@H](NC(=O)[C@H](CC(=O)O)NC(=O)[C@@H](N)Cc1cccc2ccccc12)C1CCCCC1)[C@@H](Cc1c[nH]c2ccccc12)C(=O)OC(C)(C)C (H-[1Nal]D[Chg][NMeW]-OtBu)", 0.14),
    ("CN(C)[C@@H](Cc1cccc2ccccc12)C(=O)N[C@@H](CC(=O)O)C(=O)N[C@H](C(=O)N[C@@H](Cc1c[nH]c2ccccc12)C(=O)OC(C)(C)C)c1ccccc1", 0.039),
]
